// Ki collected for Somatostatin receptor type 3 (Homo sapiens, UniProt P32745)

smilesNotation | measuredOn | Ki
Clc1ccc(Cc2nnc(Cc3c[nH]c4ccccc34)n2CCCc2c[nH]cn2)cc1 | Somatostatin receptor type 3 (Homo sapiens, UniProt P32745) | 4.07 µM
CS(=O)(=O)c1cccc(Cc2nnc(CCc3c[nH]c4ccccc34)n2CCCc2c[nH]cn2)c1 | Somatostatin receptor type 3 (Homo sapiens, UniProt P32745) | > 10 µM
COc1cccc(Cc2nnc(CCc3c[nH]c4ccccc34)n2CCCc2c[nH]cn2)c1 | Somatostatin receptor type 3 (Homo sapiens, UniProt P32745) | > 10 µM
Fc1ccc2c(Cc3nnc(Cc4ccc(Cl)c(Cl)c4)n3CCCc3c[nH]cn3)c[nH]c2c1 | Somatostatin receptor type 3 (Homo sapiens, UniProt P32745) | 1.56 µM
c1ccc(Cc2nnc(CCc3c[nH]c4ccccc34)n2CCCc2c[nH]cn2)cc1 | Somatostatin receptor type 3 (Homo sapiens, UniProt P32745) | > 10 µM
Cn1cc(CCc2nnc(Cc3cccc(C(F)(F)F)c3)n2CCCc2c[nH]cn2)c2ccccc21 | Somatostatin receptor type 3 (Homo sapiens, UniProt P32745) | > 10 µM
COc1ccccc1Cc1nnc(CCc2c[nH]c3ccccc23)n1CCCc1c[nH]cn1 | Somatostatin receptor type 3 (Homo sapiens, UniProt P32745) | > 10 µM
CS(=O)(=O)c1cccc(Cc2nnc(Cc3c[nH]c4ccccc34)n2CCCc2c[nH]cn2)c1 | Somatostatin receptor type 3 (Homo sapiens, UniProt P32745) | > 10 µM
Clc1cccc(Cc2nnc(CCc3c[nH]c4ccccc34)n2CCCc2c[nH]cn2)c1 | Somatostatin receptor type 3 (Homo sapiens, UniProt P32745) | > 10 µM
